Entries and their measured pIC50 follow.
Molecular target: HEK-Blue-hTLR7 cells (Homo sapiens, UniProt Q9NYK1)
Sequence (Q9NYK1 27-1049): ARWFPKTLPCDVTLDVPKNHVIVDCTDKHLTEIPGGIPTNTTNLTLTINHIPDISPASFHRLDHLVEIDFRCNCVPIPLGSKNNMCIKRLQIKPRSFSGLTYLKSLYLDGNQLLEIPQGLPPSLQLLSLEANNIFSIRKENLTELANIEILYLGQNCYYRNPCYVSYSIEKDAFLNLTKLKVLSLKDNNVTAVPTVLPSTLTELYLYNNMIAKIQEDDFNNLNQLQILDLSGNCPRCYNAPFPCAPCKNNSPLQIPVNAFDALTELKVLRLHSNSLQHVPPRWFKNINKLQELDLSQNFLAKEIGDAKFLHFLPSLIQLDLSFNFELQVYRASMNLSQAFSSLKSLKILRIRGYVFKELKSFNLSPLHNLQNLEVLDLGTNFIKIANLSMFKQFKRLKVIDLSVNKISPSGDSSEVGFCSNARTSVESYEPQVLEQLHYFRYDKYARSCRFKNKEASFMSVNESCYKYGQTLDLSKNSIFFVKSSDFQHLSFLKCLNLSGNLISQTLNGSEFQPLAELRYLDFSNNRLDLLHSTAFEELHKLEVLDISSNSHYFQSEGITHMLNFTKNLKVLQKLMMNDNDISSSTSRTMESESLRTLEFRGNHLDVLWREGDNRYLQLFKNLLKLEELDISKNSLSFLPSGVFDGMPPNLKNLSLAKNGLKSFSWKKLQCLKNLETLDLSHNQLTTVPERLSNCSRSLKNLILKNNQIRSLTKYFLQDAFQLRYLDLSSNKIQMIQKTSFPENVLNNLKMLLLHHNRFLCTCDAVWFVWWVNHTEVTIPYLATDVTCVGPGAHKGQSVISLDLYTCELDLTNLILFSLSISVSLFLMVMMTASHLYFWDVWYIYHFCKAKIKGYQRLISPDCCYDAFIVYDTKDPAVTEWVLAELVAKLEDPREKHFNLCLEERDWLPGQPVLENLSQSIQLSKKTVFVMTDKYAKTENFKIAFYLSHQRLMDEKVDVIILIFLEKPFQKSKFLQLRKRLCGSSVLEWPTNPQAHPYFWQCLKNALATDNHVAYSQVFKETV
Assay: HEK-Blue-hTLR7 cell inhibition assay
Details: R848 0.8 µM, 16 h, OD 620 nm, read-out: TLR7 IC50
pIC50: −log10 of the molar value.

| compound | pIC50 |
| --- | --- |
| CN1CCC(c2nnc([C@]34CN(c5ccc([N+](=O)[O-])c6ncccc56)C[C@@]3(C(F)(F)F)C4)o2)CC1 [Compound 62] | > 7.00 |
| CN1[C@@H]2CC[C@H]1C[C@H](c1nnc([C@]34CN(c5ccc(C#N)c6ncccc56)C[C@@]3(C(F)(F)F)C4)o1)C2 [Compound 11] | > 7.00 |
| Cn1c(CN2CCCC2)nnc1[C@]12CN(c3ccc(C#N)c4ncccc34)C[C@@]1(C(F)(F)F)C2 [Compound 44] | > 6.00 |
| N#Cc1ccc(N2C[C@]3(c4nnc(C5(F)CCNC5)o4)C[C@]3(C(F)(F)F)C2)c2cccnc12 (stereo partly shown) [Compound 46] | > 7.00 |
| CN1CCC(O)(c2nnc([C@]34CN(c5ccc(C(F)(F)F)c6ncccc56)C[C@@]3(C(F)(F)F)C4)o2)CC1 [Compound 94] | > 7.00 |
| N#Cc1ccc(N2C[C@]3(c4nnc(C5CNCC(F)C5)o4)C[C@]3(C(F)(F)F)C2)c2cccnc12 (stereo partly shown) [Compound 45] | > 7.00 |
| CN1CCC(c2nnc([C@]34CN(c5c(Br)cc(C#N)n6ncc(Br)c56)C[C@@]3(C(F)(F)F)C4)o2)CC1 [Compound 85] | < 6.00 |

These data points were gathered from patent EP4806891A1.
